Measured peptide exchange yield of individual entries
tested-system: HLA-A*24 (peptide-receptive MHC class I monomer of the UV-ligand exchange assay) (human)
experiment: UV-ligand exchange with anti-b2m ELISA
measurement-type: peptide exchange yield

INSERT INTO measurements (binder, measurement_type, assay_result) VALUES
  ('IYLVSIPEL [Peptide SEQ ID NO: 161 (…)]', 'peptide exchange yield', '> 75%'),
  ('VYQGHTALL [Peptide SEQ ID NO: 277 (…)]', 'peptide exchange yield', '> 75%'),
  ('TYKDEGNDYF [Peptide SEQ ID NO: 209 (…)]', 'peptide exchange yield', '50 to 75%'),
  ('LFIPSSKLLFL [Peptide SEQ ID NO: 171 (…)]', 'peptide exchange yield', '50 to 75%'),
  ('LYLDKATLI [Peptide SEQ ID NO: 198 (…)]', 'peptide exchange yield', '50 to 75%'),
  ('AYLHSHALI [Peptide SEQ ID NO: 274 (…)]', 'peptide exchange yield', '> 75%'),
  ('TYLRDQHFL [Peptide SEQ ID NO: 187 (…)]', 'peptide exchange yield', '> 75%');
